assayedTarget: human Syk protein (Homo sapiens (Human))
assayOverview: Syk kinase inhibition test
Assay type: biochemical
condition: Table 95; read-out: SYK inhibitory activity IC50
pIC50: −log10 of the molar value.
assayReadout: pIC50

                                   compound                             assayedtarget  assayreadout  testvalue
0  CCn1ncc2c(C)cc(Nc3nc(N[C@@H]4CCOC[C@@H]4N)nnc3C(N)=O)cc21  human Syk protein (Homo sapiens (Human))         pIC50       9.23
1  Cc1cc(Nc2nc(N[C@@H]3CCCC[C@@H]3N)nnc2C(N)=O)cc2cccnc12  human Syk protein (Homo sapiens (Human))         pIC50       9.48
2  CCn1ncc2c(Nc3nc(N[C@@H]4CCCC[C@@H]4N)nnc3C(N)=O)cccc21  human Syk protein (Homo sapiens (Human))         pIC50       9.21
3  NC(=O)c1nnc(N[C@@H]2CCOC[C@@H]2N)nc1Nc1cccc2c1ccn2C1CCC1  human Syk protein (Homo sapiens (Human))         pIC50       9.39
4  CC(C)(C)n1cc2cc(Nc3nc(N[C@@H]4CCOC[C@@H]4N)nnc3C(N)=O)cc(Cl)c2n1  human Syk protein (Homo sapiens (Human))         pIC50       9.39
5  NC(=O)c1nnc(N[C@@H]2CCCC[C@@H]2N)nc1Nc1cccc2c1ccn2CCO  human Syk protein (Homo sapiens (Human))         pIC50       9.17
6  COC[C@H](N)[C@@H](C)Nc1nnc(C(N)=O)c(Nc2cc(C)c3c(cnn3C(C)C)c2)n1  human Syk protein (Homo sapiens (Human))         pIC50       9.47
7  NC(=O)c1nnc(N[C@@H]2CCCC[C@@H]2N)nc1Nc1cccc2c1ccn2C(F)F  human Syk protein (Homo sapiens (Human))         pIC50       9.66
8  NC(=O)c1nnc(N[C@@H]2CCCC[C@@H]2N)nc1Nc1ccc2nn(C3CCC3)cc2c1  human Syk protein (Homo sapiens (Human))         pIC50       9.33
9  Cc1cc(Nc2nc(N[C@@H]3CCCC[C@@H]3N)nnc2C(N)=O)cc2nn(C(F)F)cc12  human Syk protein (Homo sapiens (Human))         pIC50       9.30

P. Cc1cc(Nc2nc(N[C@@H]3CCCC[C@@H]3N)nnc2C(N)=O)c2ccn([C@H]3CC[C@H](O)CC3)c2c1
Q. NC(=O)c1nnc(N[C@@H]2CCCC[C@@H]2N)nc1Nc1cc(-c2ccccc2)cs1
Returns: the label, P or Q , whose recorded pIC50 is the lower number. Answer format: the label of the selected item.
P
(P: 9.28, Q: 9.54)

1. Cc1cc(Nc2nc(N[C@@H]3CCOC[C@@H]3N)nnc2C(N)=O)cc2cn(C(C)(C)CO)nc12
2. NC(=O)c1nnc(N[C@@H]2CCCC[C@@H]2N)nc1Nc1csc2ccccc12
Returns: the label, 1 or 2 , whose recorded pIC50 is the lower number. Answer format: the label of the selected item.
1
(1: 9.20, 2: 9.54)

1. CC(C)(C)n1cc2cc(Nc3nc(N[C@@H]4CCCC[C@@H]4N)nnc3C(N)=O)cc(-n3cccn3)c2n1
2. CCn1cc2cc(Nc3nc(N[C@@H]4CCCC[C@@H]4N)nnc3C(N)=O)cc(-n3cccn3)c2n1
Returns: the label, 1 or 2 , whose recorded pIC50 is the lower number. Answer format: the label of the selected item.
1

----------
assayedTarget: human Syk protein (Homo sapiens (Human))
assayOverview: Syk kinase inhibition test
Type: biochemical
condition: Table 95; read-out: SYK inhibitory activity IC50
assayReadout: IC50 (nM)

Some entries whose results are on file:
>>> df
                                   compound  testvalue
0  Cc1cc(Nc2nc(N[C@@H]3CCOC[C@@H]3N)nnc2C(N)=O)cc2cn(C(C)(C)C)nc12 [Example 61]       0.37
1  CCOC[C@H](N)[C@@H](C)Nc1nnc(C(N)=O)c(Nc2cc(C)c3ncccc3c2)n1 [Example 282]       0.48
2  [2H]C([2H])([2H])C([2H])([2H])n1ncc2cc(Nc3nc(N[C@@H]4CCCC[C@@H]4N)nnc3C(N)=O)ccc21 [Example 5]       0.52
3  NC(=O)c1nnc(N[C@@H]2CCCC[C@@H]2N)nc1Nc1cc(-c2ccccn2)cs1 [Example 77]       0.42
4  [2H]C([2H])([2H])C([2H])([2H])n1ncc2cc(Nc3nc(N[C@H]4CCCNC4)nnc3C(N)=O)ccc21 [Example 7, diformate]       0.92

P. NC(=O)c1nnc(N[C@@H]2CCCC[C@@H]2N)nc1Nc1ccc2nn(C(F)F)cc2c1 [Example 57]
Q. NC(=O)c1nnc(N[C@@H]2CCCC[C@@H]2N)nc1Nc1cc2ccccc2s1 [Example 161]
Returns: the label, P or Q , whose recorded IC50 is the lower number. Answer format: the label of the selected item.
Q
(Q: 0.28 nM, P: 0.52 nM)
